Could you please report measured pIC50 for the items listed next?
- assay system: KRas G12D (Homo sapiens, UniProt P01116, G12D)
- Sequence (P01116 1-169 isoform P01116-2 G12D): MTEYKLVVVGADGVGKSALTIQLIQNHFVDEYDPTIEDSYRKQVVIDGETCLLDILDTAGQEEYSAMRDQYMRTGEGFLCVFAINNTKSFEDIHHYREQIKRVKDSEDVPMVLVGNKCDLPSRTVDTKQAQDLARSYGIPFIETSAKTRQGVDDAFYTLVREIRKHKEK
- test details: KRas G12D Binding Assay (TR-FRET displacement of labeled tracer)
- setup conditions: TR-FRET displacement of Cy5 labelled tracer, biotinylated GDP-loaded KRAS G12D (aa 1:169), 60 minute incubation at 22° C.
// returns pIC50 (minus log10 of molar concentration), number only

Can you share its pIC50? I mean this compound: `CCc1cccc2cccc(N3CCc4c(nc(OC[C@@H]5CCCN5C)nc4N4C[C@H]5CC[C@@H](C4)N5)C3)c12`
8.26

Need pIC50 of `CO[C@@H]1C[C@@H]2CN(c3nc(OC[C@@H]4CCCN4C)nc4c3CCN(c3cc(O)cc5ccccc35)C4)C[C@H]1N2` , thanks.
7.06

Returns the measured pIC50 for the input compound. Input: `CN1CCC[C@H]1COc1nc2c(c(N3C[C@H]4CC[C@@H](C3)N4)n1)CCN(c1cccc3cccc(CCCC#N)c13)C2`
5.18

Which pIC50 value is on record for `Fc1ccc2cccc(N3CCc4c(nc(OCC56CCCN5CCC6)nc4N4C[C@H]5CC[C@@H](C4)N5)C3)c2c1Cl` ?
9.00

// returns reported pIC50 for input `CCc1cccc2cccc(N3CCc4c(nc(OC[C@]56CCCN5[C@@H](COC(=O)N5CCCC5)CC6)nc4N4C[C@H]5CC[C@@H](C4)N5)C3)c12`
8.57
